Parameter melting point: see the listing below.

Task item: So what's the measured melting point for this one? CN(C)CCC(Oc1cccc2c1OCO2)c1cccs1.O=C(O)C(=O)O (stereo not shown) [Compound I1]
Reply: 85 to 88 °C

Task item: So what's the measured melting point for this one? CNCCC(Oc1cccc2c1OCCO2)c1cccs1.O=C(O)C(=O)O (stereo not shown)
Reply: 128 to 131 °C

Task item: So what's the measured melting point for this one? CNCCC(Oc1cccc2c1OCO2)c1ccco1.O=C(O)C(=O)O (stereo not shown) [Compound I7]
Reply: 130 to 133 °C

Task item: So what's the measured melting point for this one? CN(C)CCC(Oc1cccc2c1OCCO2)c1ccco1.O=C(O)C(=O)O (stereo not shown)
Reply: 101 to 103 °C
